List of δt values.
- condition_description: Hansen-Parameter, δt^2 = δd^2 + δp^2 + δh^2
- Description: Damit die hydrophobe Verbindung effektiv verkapselt werden kann, ist es erforderlich, dass die Verbindung ausreichend hydrophob ist, so dass sie nicht mit dem aus den Monomeren gebildeten Polymer derart interagiert, dass sie dieses übermäßig quellen und dadurch für die Verbindung stärker permeabel werden lässt. […]

Worked set:
1. C/C=C/C(=O)C1=C(C)CCCC1(C)C: 18,84
2. CC(C=O)Cc1ccc(C(C)(C)C)cc1 (stereo not drawn): 18,10
3. C/C=C\C(=O)C1C(C)=CCCC1(C)C (stereo not drawn): 18,94
4. CC(C)=CCC/C(C)=C/CO: 20,25
5. C=CC(C)CCCC(C)(C)O (stereo not drawn) [Dihydromyrcenol]: 19,72

# query: δt of entry CC/C=C\CC1=C(C)CCC1=O 18,49

Returns the measured δt for the input compound. Input: OCCc1ccccc1 24,09

What measured δt goes with CC(C)=CCCC(C)CCO (stereo not drawn) ? 19,97

Consider the compound CC(C)=CCCC(C)CC=O (stereo not drawn) and give its measured δt. 18,01

* * *

- assay_comment: Encapsulation efficiency EEsc / solid content, gravimetric after freeze-drying
- Type: physicochemical
- condition_description: fragrance encapsulated with Monomermischung S1
metric_name: Verkapselungseffizienz EEsc (%)
Write the number in % without appending the unit.

1. C=CC(C)CCCC(C)(C)O (centres unmarked) [Dihydromyrcenol]: 4
2. CC(C)=CCC/C(C)=C/CO: 0
3. CC1=CCC2CC1C2(C)C (centres unmarked): 91
4. CC(C)=CCCC(C)CC=O (centres unmarked): 72
5. CC(C)=CCCC(C)CCO (centres unmarked): 25

What value of measured Verkapselungseffizienz EEsc is listed for CC(C=O)Cc1ccc(C(C)(C)C)cc1 (centres unmarked) ? 77

Verkapselungseffizienz EEsc lookup needed for C/C=C/C(=O)C1=C(C)CCCC1(C)C , thanks. 72

GET /values?readout=Verkapselungseffizienz EEsc&item= C/C=C\C(=O)C1C(C)=CCCC1(C)C (centres unmarked) 52
